The measurements presented in this section are drawn from PubChem BioAssay.

# System: Neuregulin-1 EGF-like domain
# procedure-summary: small molecules binding NRG1 EGF domain – biochemical, small-molecule microarray, 635 nm fluorescence, primary screen (AID 1081);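 note: binding of the protein to compounds printed on small-molecule microarray slides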
# condition-parameters: higher = more signal
Each entry below lists one item and its recorded composite z-score value.
measurement-type: composite z-score

CC(=O)N1Cc2ccccc2C[C@@]2(N=C(c3ccc(OCCCO)cc3)O[C@H]2c2ccccc2)C1=O ... 1.31
C=C(CCCC)/C(=C/C[C@@H](OC(=O)c1ccncc1)c1ccc(CO)o1)c1cc(C(=O)OC)ccc1OC ... 1.27
COc1ccc([Si](C)(C)[C@H]2[C@H](CC(=O)N3Cc4ccccc4C[C@H]3CO)O[C@@]3(C(=O)N(Cc4cccc(I)c4)c4ccccc43)[C@@H]2C)cc1 ... 0.853
CC(C)[Si]1(C(C)C)O[C@@H](c2ccccc2)c2cc(-c3ccc(-c4ccc(Cl)c(Cl)c4)o3)nc(CCc3ccccc3)c21 ... -0.314
CCCNC(=O)[C@@]1(C)c2ccccc2C(=O)N(Cc2cc(F)cc(C(F)(F)F)c2)[C@H]1c1ccc(CO)cc1 ... 0.146
C=CCC(OC(C)=O)[C@@H]1[C@@H](N(Cc2ccc(-c3ccccc3)cc2)C(=O)c2ccc(C)cc2)c2cc(OCCCO)ccc2N1C(=O)Cc1ccc(OC)cc1 (some centres not stated) ... -0.453
C=CCCN(CC#C[C@H]1Oc2ccccc2S(=O)(=O)N2CCC[C@@H]12)S(=O)(=O)c1ccc(C)cc1 ... 0.476
